- Tested on: TK-10
- assayProcedure: NCI tumour cell line growth inhibition, 48 h
Active and inactive are the calls of the source. No stated cut-off is given here; in the data, active = GI50 up to about 1.1 µM and inactive = higher.
propertyLabel: GI50

Q) Please report the recorded GI50 for CC(C)CCCCCCCCCCCCC(=O)NCC(=O)NC1C(C)OC(Nc2[nH]cnc3ncnc2-3)C(O)C1O (stereo unspecified) .
A) 0.00102 µM (active)

Q) Reported GI50, compound C[C@]12CC[C@@H]3c4ccc(O)cc4CC[C@H]3[C@@H]1CC[C@@H]2OC(=O)CCc1ccccc1 : ____
A) 18.5 µM (inactive)

Q) So what's the measured GI50 for this one? O=C(O)c1cccc2c1/C(=N/Nc1ccccc1)CC2
A) > 100 µM (inactive)

Q) Would you mind telling me what GI50 value was observed for CC1=NN(c2cccc(Cl)c2)C2(SCC(=O)N2c2nc3ccccc3s2)C1=CC=Cc1ccccc1 (stereo unspecified) ?
A) 62.4 µM (inactive)

Q) For the compound CC(=O)O[C@H]1C(=O)N(c2cc3c4ccccc4ccc3c3ccccc23)[C@@H]1c1ccccc1 , what GI50 is on record?
A) 12.8 µM (inactive)

Q) What value of GI50 has been reported for the following compound? COc1ccc2cc(CNCCCN3CCN(CCCNCc4ccc5cc(OC)ccc5c4)CC3)ccc2c1
A) 1.89 µM (inactive)

Q) Quick check: GI50 of CC1(C)OC2OC(C(COS(=O)(=O)C(F)(F)F)N=[N+]=[N-])C(OC(=O)c3ccccc3)C2O1 (stereo unspecified) ?
A) > 100 µM (inactive)

Q) # GI50 lookup, item CCNC(=O)c1cc(Cl)ccc1NC(=O)C12CC3CC(CC(C3)C1)C2
A) 52.8 µM (inactive)

Q) Need GI50 of COc1cc(OC)cc(Oc2nc3ccccc3nc2C(=O)O)c1 , thanks.
A) > 100 µM (inactive)

Q) Report GI50 for COc1cccc(C2c3cc4c(cc3OC(NNS(=O)(=O)c3ccc(C)cc3)C2C)OCO4)c1O (stereo unspecified) please.
A) 31.8 µM (inactive)

Q) # lookup: GI50 of CCN(CC)CCn1c2cc3c(cc2c(=O)c2cccnc21)OCO3
A) 6.01 µM (inactive)

Q) Need GI50 of COC1OC(COC(C)=O)C(OC(C)=O)C(OC(C)=O)C1NC(=O)N(CCCl)N=O (stereo unspecified) , thanks.
A) > 100 µM (inactive)

Q) What does the record list as GI50 for COC(=O)C1=C(O)CCCC(C2CCCCC(=O)C2C(=O)OC)=C1 (stereo unspecified) ?
A) > 100 µM (inactive)

Q) Sample CCOc1ccc(NC(=S)N/C=C(/C(C)=O)C(=O)Nc2ccccc2C)cc1 — what was its GI50?
A) > 100 µM (inactive)

Q) Consider the compound shown here: CC(CC(=O)Nc1ccc(NC(=O)CC(C)/N=N\C(N)=O)cc1)/N=N\C(N)=O (stereo unspecified) What is its recorded GI50?
A) > 100 µM (inactive)

Q) I am curious: what GI50 value has been reported for Cc1c(C(=O)c2ccc(N)c3ccccc23)c2ccccc2n1CCN1CCOCC1 ?
A) 31 µM (inactive)

Q) // query GI50 value for entry O=C1N/N=C\Nc2ccc(cc2)S(=O)(=O)c2ccc(cc2)/N=C\NNC1=O
A) > 100 µM (inactive)

Q) May I ask what GI50 has been recorded for CCOC(=O)c1cn2c([nH]c3ccccc32)c(C#N)c1=O ?
A) > 100 µM (inactive)

Q) GET /values?readout=GI50&item= O=c1oc2ccc([N+](=O)[O-])cc2c(Nc2ccc3c(c2)Oc2ccccc2O3)c1[N+](=O)[O-]
A) 37.3 µM (inactive)

Q) Record request: GI50 value, item N#CC(Sc1ccccc1)C(N)=O (stereo unspecified)
A) > 100 µM (inactive)

Q) For the compound shown here, CN(C)CCNC1=Nc2ccccc2C(=O)N2CSCC12 (stereo unspecified) , give the reported GI50.
A) > 100 µM (inactive)

Hello, the source for this data is ChEMBL document CHEMBL1201862, in case you need it.
